B1: Azoarcus group I ribozyme (parent)
chain: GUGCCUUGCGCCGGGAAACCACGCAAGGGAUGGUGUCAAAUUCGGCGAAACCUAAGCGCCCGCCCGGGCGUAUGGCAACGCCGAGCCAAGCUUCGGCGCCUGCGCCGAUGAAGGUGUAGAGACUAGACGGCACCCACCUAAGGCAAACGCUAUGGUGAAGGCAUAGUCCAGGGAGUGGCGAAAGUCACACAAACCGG

Variants of: B1
Assay: reverse-splicing fitness (ratio to wild type); higher = more active; in vitro selection; Mg2+ level not given
Each entry gets 0 if its reverse-splicing fitness stays under 0.009, and 1 if its reverse-splicing fitness is 0.009 or above.

Use these answered entries as a reference point.
# variantDescriptor, categoryLabel
rows = [
    ("C82A A111G A120U A145U C169A U176G", 0),
    ("C82U A111U A120C A145U C150U C169U", 1),
    ("A120G A145C C150G C169A", 1),
    ("A111G A120G A145U C169U U176G", 1),
    ("C82U A111C A120C A145U U176G", 0),
    ("A111C A120G A145C C150A C169A", 1),
]

Next, consider the following variant.
Entry C82A A111U A145G C169U U176C : is its reverse-splicing fitness no less than 0.009?
1
